biological target: Zap-70 (Homo sapiens); construct: Kinases are expressed as either kinase domains or full length constructs; made in house; assay: Kinase inhibition assay (33P transfer), Zap-70; assay type: biochemical; conditions: Table 3, class symbols; read-out: Zap-1
Sequence (P43403 whole entry, species assumed, the tested form may be a part): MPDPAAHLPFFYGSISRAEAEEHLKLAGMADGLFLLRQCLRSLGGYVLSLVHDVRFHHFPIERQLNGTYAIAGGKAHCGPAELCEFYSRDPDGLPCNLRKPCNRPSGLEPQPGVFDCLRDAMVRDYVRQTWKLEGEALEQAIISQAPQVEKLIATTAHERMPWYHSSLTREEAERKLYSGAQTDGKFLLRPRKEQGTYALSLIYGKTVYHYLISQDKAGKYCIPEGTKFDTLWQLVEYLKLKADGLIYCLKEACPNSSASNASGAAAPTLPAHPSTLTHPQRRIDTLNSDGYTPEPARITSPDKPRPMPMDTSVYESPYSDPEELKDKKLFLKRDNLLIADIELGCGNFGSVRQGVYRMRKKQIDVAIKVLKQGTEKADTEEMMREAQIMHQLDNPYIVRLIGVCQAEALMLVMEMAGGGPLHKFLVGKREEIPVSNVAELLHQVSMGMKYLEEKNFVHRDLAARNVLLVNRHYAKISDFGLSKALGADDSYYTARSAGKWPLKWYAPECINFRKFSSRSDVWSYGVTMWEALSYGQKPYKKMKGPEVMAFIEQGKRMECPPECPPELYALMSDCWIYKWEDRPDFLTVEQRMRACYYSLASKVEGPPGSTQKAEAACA
pIC50: −log10 of the molar value.
endpoint name: pIC50

Some solved cases for reference:
Record request: pIC50 value, item c1ccc(Nc2ncccc2-c2ncnc(Nc3ccc(N4CCOCC4)cc3)n2)cc1
5.25 to 6.03

Record request: pIC50 value, item CC(C)Nc1ncccc1-c1ncnc(Nc2ccc(N3CCOCC3)cc2)n1
< 4.94

Record request: pIC50 value, item Cc1ccc(Cl)cc1Nc1ncnc(N2c3ccc(F)cc3CCC2C)n1 (centres unmarked)
< 4.93

Record request: pIC50 value, item COc1ccc(Nc2ncnc(N(C)c3ccccc3OC(F)(F)F)n2)cc1OC
< 4.97

Record request: pIC50 value, item COC(=O)c1ccc(-c2cc(Nc3ncnc(NCCN4CCNC4=O)n3)[nH]n2)cc1
< 4.97

---
Record request: pIC50 value, item COc1cc(Nc2ncnc(-c3cccnc3N[C@@H](C)c3ccccc3)n2)cc(OC)c1OC
< 5.01

Record request: pIC50 value, item c1ccc(CNc2nc3ccccc3n2-c2ncnc(Nc3cccc(Cn4ccnn4)c3)n2)nc1
< 5.02

Record request: pIC50 value, item c1coc(-c2cc(Nc3ncnc(Nc4nc[nH]n4)n3)n[nH]2)c1
< 4.84

---

biological target: Kdr (Homo sapiens, UniProt P35968); construct: Kinases are expressed as either kinase domains or full length constructs; made in house; test: Kinase inhibition assay (33P transfer), Kdr; assay type: biochemical; conditions: Table 3, class symbols; read-out: KDR-1
Sequence (P35968 20-1356, species assumed): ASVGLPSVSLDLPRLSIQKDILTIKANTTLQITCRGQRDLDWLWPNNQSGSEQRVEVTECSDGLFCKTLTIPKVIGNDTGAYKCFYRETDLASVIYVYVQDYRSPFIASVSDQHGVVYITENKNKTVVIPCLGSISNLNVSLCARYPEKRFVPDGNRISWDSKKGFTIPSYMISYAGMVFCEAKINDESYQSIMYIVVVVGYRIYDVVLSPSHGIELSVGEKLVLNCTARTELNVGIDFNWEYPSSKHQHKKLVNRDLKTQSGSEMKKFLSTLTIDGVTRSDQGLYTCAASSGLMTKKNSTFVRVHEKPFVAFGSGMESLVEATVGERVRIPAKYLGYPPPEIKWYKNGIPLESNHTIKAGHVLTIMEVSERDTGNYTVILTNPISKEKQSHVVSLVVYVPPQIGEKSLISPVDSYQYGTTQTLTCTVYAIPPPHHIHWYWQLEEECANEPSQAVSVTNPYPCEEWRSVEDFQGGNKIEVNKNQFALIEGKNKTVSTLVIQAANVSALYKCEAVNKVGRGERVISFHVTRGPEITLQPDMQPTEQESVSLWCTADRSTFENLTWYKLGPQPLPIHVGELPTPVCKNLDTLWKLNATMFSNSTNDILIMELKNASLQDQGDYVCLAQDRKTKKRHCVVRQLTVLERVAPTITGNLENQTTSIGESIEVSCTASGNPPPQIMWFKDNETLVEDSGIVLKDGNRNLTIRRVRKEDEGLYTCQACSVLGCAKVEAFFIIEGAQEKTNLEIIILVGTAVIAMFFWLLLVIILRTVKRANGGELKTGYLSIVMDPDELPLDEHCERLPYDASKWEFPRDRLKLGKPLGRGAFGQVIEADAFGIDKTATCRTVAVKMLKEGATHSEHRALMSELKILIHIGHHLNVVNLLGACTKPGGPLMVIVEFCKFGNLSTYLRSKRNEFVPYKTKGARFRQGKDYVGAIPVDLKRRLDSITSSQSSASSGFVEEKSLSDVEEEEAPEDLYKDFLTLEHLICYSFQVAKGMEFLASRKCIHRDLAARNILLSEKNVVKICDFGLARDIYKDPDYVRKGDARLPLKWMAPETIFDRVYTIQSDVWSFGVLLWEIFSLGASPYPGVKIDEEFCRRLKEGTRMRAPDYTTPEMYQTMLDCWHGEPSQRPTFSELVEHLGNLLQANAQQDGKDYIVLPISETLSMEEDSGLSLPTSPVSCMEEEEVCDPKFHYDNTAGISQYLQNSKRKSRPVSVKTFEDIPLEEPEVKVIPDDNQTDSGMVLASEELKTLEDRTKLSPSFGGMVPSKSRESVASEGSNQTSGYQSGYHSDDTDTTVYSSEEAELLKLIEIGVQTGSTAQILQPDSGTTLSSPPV
pIC50: −log10 of the molar value.
endpoint name: pIC50

Some solved cases for reference:
Record request: pIC50 value, item COc1ccc(Nc2ncnc(NCc3ncc(C(F)(F)F)cc3Cl)n2)cc1OC [Compound 858]
< 4.99

Record request: pIC50 value, item COc1cccc(Nc2ncccc2-c2ncnc(Nc3cc(OC)c(OC)c(OC)c3)n2)c1 [Compound 829]
> 6.06

Record request: pIC50 value, item COC(=O)c1ccc(-c2cc(Nc3ncnc(Nc4cccc5ncccc45)n3)[nH]n2)cc1 [Compound 878]
< 4.99

Record request: pIC50 value, item CN(c1cccc(Cl)c1)c1ncnc(Nc2ccc3c(cnn3C)c2)n1 [Compound 674]
5.18 to 5.96

Record request: pIC50 value, item COC(=O)c1ccc(-c2cc(Nc3ncnc(Nc4cc(F)cc(F)c4)n3)[nH]n2)cc1 [Compound 810]
< 4.97

Record request: pIC50 value, item Cc1ccc(Cl)cc1Nc1ncnc(Nc2cc(Cl)ccc2C)n1 [Compound 638]
4.90 to 5.01

Record request: pIC50 value, item CC(C)Nc1ncccc1-c1ncnc(Nc2ccc3[nH]ncc3c2)n1 [Compound 1116]
5.00 to 5.16

---
Record request: pIC50 value, item Clc1cc(Nc2ncnc(Nc3ccc4c(cnn4Cc4ccccc4)c3)n2)cc(Cl)c1Cl [Compound 872]
5.32 to 6.09

---

Reported IC50 by item:
target: Lck (Homo sapiens); construct: Kinases are expressed as either kinase domains or full length constructs; made in house; assay: Kinase inhibition assay (33P transfer), Lck; format: biochemical; settings: read-out: Lck-1
Sequence (P06239 whole entry, species assumed, the tested form may be a part): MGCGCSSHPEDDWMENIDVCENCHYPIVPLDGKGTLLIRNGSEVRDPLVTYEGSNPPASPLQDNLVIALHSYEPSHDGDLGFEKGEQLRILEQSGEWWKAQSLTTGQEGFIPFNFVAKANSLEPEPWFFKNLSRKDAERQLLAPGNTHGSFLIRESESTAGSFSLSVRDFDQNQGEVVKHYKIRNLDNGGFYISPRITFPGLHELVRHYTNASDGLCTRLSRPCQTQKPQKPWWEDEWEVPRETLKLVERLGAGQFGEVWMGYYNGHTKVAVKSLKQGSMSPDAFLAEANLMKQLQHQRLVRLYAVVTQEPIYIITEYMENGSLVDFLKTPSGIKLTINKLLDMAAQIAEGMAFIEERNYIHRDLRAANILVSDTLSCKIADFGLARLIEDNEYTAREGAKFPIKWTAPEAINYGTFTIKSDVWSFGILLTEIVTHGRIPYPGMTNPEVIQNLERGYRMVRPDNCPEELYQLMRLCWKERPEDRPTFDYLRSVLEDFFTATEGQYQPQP

Some solved cases for reference:
Record request: IC50 value, item COc1cc(Nc2ncnc(Nc3ncnc4[nH]cnc34)n2)cc(OC)c1OC [Compound 696]
> 11.4 µM

Record request: IC50 value, item N#CCc1ccc(Nc2ncnc(Nc3ccc4c(cnn4Cc4ccccc4)c3)n2)cc1 [Compound 731]
0.925 to 5.55 µM

---
Record request: IC50 value, item COc1cc(Nc2ncnc(N(C)c3ccc4c(cnn4Cc4ccccc4)c3)n2)cc(OC)c1OC [Compound 566]
< 0.804 µM

---

target: Kdr (Homo sapiens, UniProt P35968); construct: Kinases are expressed as either kinase domains or full length constructs; made in house; assay: Kinase inhibition assay (33P transfer), Kdr; type: biochemical; settings: read-out: KDR-1
pIC50: −log10 of the molar value.
Reported pIC50 by item:

Record request: pIC50 value, item COc1cc(Nc2ncnc(-n3c(NCc4ccc(Cl)cc4C)nc4ccccc43)n2)cc(OC)c1OC
5.35 to 6.12

---
Record request: pIC50 value, item O=c1[nH]c2ccccc2n1-c1ncnc(Nc2cccc3ccccc23)n1
< 4.90

Record request: pIC50 value, item COc1cc(Nc2ncnc(-n3c(N[C@@H](CO)c4ccccc4)nc4ccccc43)n2)cc(OC)c1OC
> 6.11

Record request: pIC50 value, item COc1cc(Nc2ncnc(-n3c(NCc4cccs4)nc4ccccc43)n2)cc(OC)c1OC
> 6.09

Record request: pIC50 value, item CN(c1cccc(Cl)c1)c1ncnc(Nc2ccc(Cl)c(Cl)c2)n1
< 4.93

---

target: AKT (Homo sapiens); construct: Kinases are expressed as either kinase domains or full length constructs; made in house; test: Kinase inhibition assay (33P transfer), AKT; assay type: biochemical; details: Table 2, kinase inhibition class; read-out: AKT3-1
Sequence (Q9Y243 whole entry, the tested form may be a part): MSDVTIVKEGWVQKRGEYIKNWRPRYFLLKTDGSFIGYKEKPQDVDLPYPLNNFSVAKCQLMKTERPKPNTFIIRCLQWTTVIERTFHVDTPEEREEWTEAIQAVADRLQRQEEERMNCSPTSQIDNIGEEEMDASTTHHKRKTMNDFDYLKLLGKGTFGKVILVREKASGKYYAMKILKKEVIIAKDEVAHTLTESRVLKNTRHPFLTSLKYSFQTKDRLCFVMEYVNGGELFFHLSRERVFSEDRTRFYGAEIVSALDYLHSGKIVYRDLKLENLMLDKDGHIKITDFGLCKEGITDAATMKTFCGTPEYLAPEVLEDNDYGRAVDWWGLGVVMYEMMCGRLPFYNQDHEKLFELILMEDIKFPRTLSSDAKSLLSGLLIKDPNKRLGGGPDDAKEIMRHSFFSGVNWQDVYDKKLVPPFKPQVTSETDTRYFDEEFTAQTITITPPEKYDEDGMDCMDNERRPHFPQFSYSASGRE
endpoint name: IC50

Some solved cases for reference:
API: value(readout=IC50, system=AKT (Homo sapiens)) for record Nc1nc2ccccc2n1-c1ncnc(Nc2cccc(Cl)c2)n1 [Compound 474]
1.18 to 7.11 µM

API: value(readout=IC50, system=AKT (Homo sapiens)) for record Nc1ncnc(Nc2ccc3c(c2)OCO3)n1 [Compound 1025]
> 19.5 µM

API: value(readout=IC50, system=AKT (Homo sapiens)) for record COc1cc(Nc2ncnc(N3CCCC3)n2)cc(OC)c1OC [Compound 181]
> 13.6 µM

API: value(readout=IC50, system=AKT (Homo sapiens)) for record c1ccc(Cn2ncc3cc(Nc4ncnc(Nc5cc(-c6ccccc6)[nH]n5)n4)ccc32)cc1 [Compound 737]
7.62 to 9.79 µM

API: value(readout=IC50, system=AKT (Homo sapiens)) for record COc1cc(Nc2ncnc(Nc3ccc(N(C)C)cc3)n2)cc(OC)c1OC [Compound 27]
> 11.4 µM

Note: attention shifts to another entry.
API: value(readout=IC50, system=AKT (Homo sapiens)) for record COc1cc(Nc2ncnc(Nc3ccc(C(C)=O)cc3)n2)cc(OC)c1OC [Compound 698]
> 11.4 µM

---

target: AKT (Homo sapiens); construct: Kinases are expressed as either kinase domains or full length constructs; made in house; assay: Kinase inhibition assay (33P transfer), AKT; assay type: biochemical; conditions: Table 2, class symbols A-E; read-out: AKT3-1
endpoint name: IC50

Record request: IC50 value, item CN(c1cccc(Cl)c1)c1ncnc(Nc2ccc(OC(F)(F)F)cc2)n1
> 11.4 µM

---
Record request: IC50 value, item Fc1ccc(CNc2ncnc(Nc3cc(-c4ccco4)n[nH]3)n2)cc1
> 12.8 µM

---

Target: Itk (Homo sapiens)
Construct: Kinases are expressed as either kinase domains or full length constructs; made in house
Sequence (Q08881 whole entry, species assumed, the tested form may be a part): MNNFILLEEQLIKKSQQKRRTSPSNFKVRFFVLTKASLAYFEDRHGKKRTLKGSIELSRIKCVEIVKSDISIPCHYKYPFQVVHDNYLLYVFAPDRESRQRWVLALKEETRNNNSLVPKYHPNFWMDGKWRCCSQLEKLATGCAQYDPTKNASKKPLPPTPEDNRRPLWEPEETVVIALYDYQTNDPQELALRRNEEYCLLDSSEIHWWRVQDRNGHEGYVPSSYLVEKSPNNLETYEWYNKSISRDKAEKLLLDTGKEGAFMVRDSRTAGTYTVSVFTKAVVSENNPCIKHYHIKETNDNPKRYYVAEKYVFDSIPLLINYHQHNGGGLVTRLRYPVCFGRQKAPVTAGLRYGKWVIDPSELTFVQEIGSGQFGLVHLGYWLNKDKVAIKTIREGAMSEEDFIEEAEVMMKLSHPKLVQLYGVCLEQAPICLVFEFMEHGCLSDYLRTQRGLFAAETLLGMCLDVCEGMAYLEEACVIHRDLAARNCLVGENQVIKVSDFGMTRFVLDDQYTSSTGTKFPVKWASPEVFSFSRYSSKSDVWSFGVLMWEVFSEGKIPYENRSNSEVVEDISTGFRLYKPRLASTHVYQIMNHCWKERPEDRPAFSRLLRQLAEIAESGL
Test: Kinase inhibition assay (33P transfer), Itk
Assay type: biochemical
Conditions: read-out: Itk-1
Experimental: The inhibitor compounds described herein are screened in the following manner. […] Kinases are expressed as either kinase domains or full length constructs fused to glutathione S-transferase (GST) or polyHistidine tagged fusion proteins in either E. colior Baculovirus-High Five expression systems. […] Kinase activity and inhibition are measured essentially by established protocols (Braunwalder et al., 1996). […]
endpoint name: IC50

Some solved cases for reference:
Record request: IC50 value, item c1ccc(Cn2ncc3cc(Nc4ncnc(Nc5ncccn5)n4)ccc32)cc1
1.01 to 6.07 µM

Record request: IC50 value, item COc1cc(Nc2ncnc(-n3c(N[C@H](C)c4ccccc4)nc4ccccc43)n2)cc(OC)c1OC
> 9.04 µM

Record request: IC50 value, item COc1cc(C)c(Nc2ncnc(Nc3cc(-c4ccccc4)n[nH]3)n2)cc1OC
5.95 to 8.68 µM

Note: attention shifts to another entry.
Record request: IC50 value, item COc1cc(Nc2ncnc(-c3ccc(NCCCN)nc3)n2)cc(OC)c1OC
> 10.9 µM

---

Reported IC50 by item:
target: IGFR-1 (Homo sapiens); construct: Kinases are expressed as either kinase domains or full length constructs; made in house; assay: Kinase inhibition assay, IGFR-1 (Table 2); format: biochemical; conditions: Table 2, kinase inhibition class
Sequence (P08069 31-1367): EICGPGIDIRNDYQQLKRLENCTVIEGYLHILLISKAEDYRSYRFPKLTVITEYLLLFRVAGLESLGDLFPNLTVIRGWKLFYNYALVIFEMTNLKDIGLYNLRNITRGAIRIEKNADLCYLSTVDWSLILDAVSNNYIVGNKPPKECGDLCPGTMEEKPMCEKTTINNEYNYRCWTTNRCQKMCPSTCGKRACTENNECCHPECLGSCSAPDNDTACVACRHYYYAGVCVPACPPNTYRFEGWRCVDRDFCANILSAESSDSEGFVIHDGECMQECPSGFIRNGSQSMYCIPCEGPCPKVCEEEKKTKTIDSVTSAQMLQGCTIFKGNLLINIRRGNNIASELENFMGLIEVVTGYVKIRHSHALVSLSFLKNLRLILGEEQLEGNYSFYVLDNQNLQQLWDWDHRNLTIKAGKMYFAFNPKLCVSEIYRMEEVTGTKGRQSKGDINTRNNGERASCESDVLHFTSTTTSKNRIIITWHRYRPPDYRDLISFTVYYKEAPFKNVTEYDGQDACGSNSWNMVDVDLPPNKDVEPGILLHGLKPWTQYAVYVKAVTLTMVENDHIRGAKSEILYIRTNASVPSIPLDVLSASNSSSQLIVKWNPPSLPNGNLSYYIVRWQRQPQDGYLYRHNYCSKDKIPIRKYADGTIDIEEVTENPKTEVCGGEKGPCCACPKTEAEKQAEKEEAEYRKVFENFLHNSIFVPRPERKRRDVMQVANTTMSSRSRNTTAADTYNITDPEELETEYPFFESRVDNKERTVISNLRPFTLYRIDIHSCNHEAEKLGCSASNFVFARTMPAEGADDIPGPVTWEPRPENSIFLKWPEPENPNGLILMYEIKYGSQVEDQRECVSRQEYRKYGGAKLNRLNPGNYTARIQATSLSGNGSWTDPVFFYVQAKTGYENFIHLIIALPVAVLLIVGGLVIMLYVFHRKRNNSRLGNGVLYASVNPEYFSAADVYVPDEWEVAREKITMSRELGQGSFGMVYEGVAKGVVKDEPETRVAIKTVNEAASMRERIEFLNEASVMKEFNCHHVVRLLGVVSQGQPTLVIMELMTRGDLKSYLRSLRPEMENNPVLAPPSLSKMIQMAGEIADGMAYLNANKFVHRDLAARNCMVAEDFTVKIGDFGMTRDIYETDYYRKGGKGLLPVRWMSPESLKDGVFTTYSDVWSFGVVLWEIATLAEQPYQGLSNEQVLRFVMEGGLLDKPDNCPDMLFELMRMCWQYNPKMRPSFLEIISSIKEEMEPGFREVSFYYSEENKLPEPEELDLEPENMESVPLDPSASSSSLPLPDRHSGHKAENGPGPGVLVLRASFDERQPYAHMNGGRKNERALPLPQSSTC

Some solved cases for reference:
Record request: IC50 value, item Cc1ccc2c(c1)CCCN2c1ncnc(NCCCn2ccnc2)n1 [Compound 772]
> 12.9 µM

Record request: IC50 value, item COc1cc(Nc2ncnc(-n3c(NCc4ccc(C)cc4)nc4ccccc43)n2)cc(OC)c1OC [Compound 516]
> 9.04 µM

Record request: IC50 value, item CN(c1cccc(Cl)c1)c1ncnc(Nc2ccccc2)n1 [Compound 748]
7.7 to 11.2 µM

Record request: IC50 value, item COc1ccc(Nc2ncnc(NCC(O)c3ccccc3)n2)cc1OC (stereo not drawn) [Compound 780]
> 12.2 µM

---
Record request: IC50 value, item COc1cc(Nc2ncnc(-n3c(NC(C)c4ccc(F)cc4)nc4ccccc43)n2)cc(OC)c1OC (stereo not drawn) [Compound 605]
> 8.73 µM

Record request: IC50 value, item CN(c1cccc(Cl)c1)c1ncnc(Nc2cc(-c3ccco3)[nH]n2)n1 [Compound 753]
1.09 to 6.53 µM

Record request: IC50 value, item CN1CCN(Cc2cccc(Nc3ncnc(Nc4cccc5ccccc45)n3)c2)CC1 [Compound 551]
> 10.6 µM

Record request: IC50 value, item COc1cc(Nc2ncnc(Nc3cc(OC)c(OCCN4CCOCC4)c(OC)c3)n2)cc(OC)c1OC [Compound 562]
4.42 to 6.45 µM

Record request: IC50 value, item CN(c1cccc(Cl)c1)c1ncnc(Nc2ccncc2)n1 [Compound 756]
> 14.4 µM

Record request: IC50 value, item COc1cc(Nc2ncnc(-n3c(NCc4cccc(Cl)c4)nc4ccccc43)n2)cc(OC)c1OC [Compound 949]
6.76 to 8.69 µM

Record request: IC50 value, item COc1cc(Nc2ncnc(Nc3cc(-c4ccc(C)cc4)n[nH]3)n2)cc(OC)c1OC [Compound 521]
< 0.923 µM

Record request: IC50 value, item COc1cc(Nc2ncnc(-c3cccnc3NCc3ccc(F)cc3)n2)cc(OC)c1OC [Compound 1088]
> 9.73 µM

Record request: IC50 value, item COc1cc(Nc2ncnc(N(C)c3cccc(Cl)c3)n2)cc(OC)c1OC [Compound 603]
0.995 to 5.97 µM

Record request: IC50 value, item COc1cc(Nc2ncnc(Nc3ccc(Cl)c4ccccc34)n2)cc(OC)c1OC [Compound 1031]
0.913 to 5.48 µM

Record request: IC50 value, item CN(c1cccc(Cl)c1)c1ncnc(Nc2ccc3cn[nH]c3c2)n1 [Compound 718]
> 12.8 µM

Record request: IC50 value, item Cc1ccc(Nc2ncnc(Nc3cccc(CC(=O)O)c3)n2)cc1O [Compound 543]
> 12.8 µM

Record request: IC50 value, item NC(=O)c1ccc(Nc2ncnc(-c3cccnc3NCc3ccccc3)n2)cc1 [Compound 1082]
6.04 to 8.81 µM

Record request: IC50 value, item Cc1ccc2c(c1)CCCN2c1ncnc(NCC2CCCO2)n1 (stereo not drawn) [Compound 759]
> 13.8 µM
